test: clinical; conditions: human, plasma, oral, 160 mg, T1/2, 160 mg t.i.w., cycle 1 Last Wednesday, mean
REPORTED ENDPOINT: half-life (h)
One number for each entry, in h.

Reported half-life for C=CC(=O)N1CC[C@H](n2nc(C#Cc3cc(OC)cc(OC)c3)c3c(N)ncnc32)C1 [futibatinib] : what is it?
3.99

====

assay: clinical; conditions: human, plasma, oral, 16 mg, Tmax, 16 mg q.d., cycle 1 Day 1, median
REPORTED ENDPOINT: Tmax (h)
Answers are plain numbers, in h.

Which Tmax is reported for this molecule? C=CC(=O)N1CC[C@H](n2nc(C#Cc3cc(OC)cc(OC)c3)c3c(N)ncnc32)C1 [futibatinib]
2

====

assay: clinical; settings: human, plasma, oral, 36 mg, AUC0–inf, 36 mg t.i.w., cycle 1 Day 1, mean
REPORTED ENDPOINT: AUC(0-inf) (ng·h/mL)
Give bare numbers, in ng·h/mL.

# get_value(readout='AUC(0-inf)', item= C=CC(=O)N1CC[C@H](n2nc(C#Cc3cc(OC)cc(OC)c3)c3c(N)ncnc32)C1 [futibatinib] )
2680

====

assay: clinical; settings: human, plasma, oral, 4 mg, T1/2, 4 mg q.d., cycle 1 Day 21, mean
REPORTED ENDPOINT: half-life (h)
One number for each entry, in h.

Need half-life of C=CC(=O)N1CC[C@H](n2nc(C#Cc3cc(OC)cc(OC)c3)c3c(N)ncnc32)C1 [futibatinib] , thanks.
1.63

====

experiment: clinical; details: human, plasma, oral, 8 mg, AUC0–inf, 8 mg q.d., cycle 1 Day 1, mean
REPORTED ENDPOINT: AUC(0-inf) (ng·h/mL)
Give bare numbers, in ng·h/mL.

Query (molecule): C=CC(=O)N1CC[C@H](n2nc(C#Cc3cc(OC)cc(OC)c3)c3c(N)ncnc32)C1 ; field requested: AUC(0-inf)
524

====

experiment: clinical; conditions: human, plasma, oral, 200 mg, Cmax, 200 mg t.i.w., cycle 1 Last Wednesday, n 1
REPORTED ENDPOINT: Cmax (ng/mL)
One number for each entry, in ng/mL.

// Cmax lookup, key: C=CC(=O)N1CC[C@H](n2nc(C#Cc3cc(OC)cc(OC)c3)c3c(N)ncnc32)C1
845

====

experiment: clinical; details: human, plasma, oral, 16 mg, Cmax, 16 mg t.i.w., cycle 1 Last Wednesday, mean
REPORTED ENDPOINT: Cmax (ng/mL)
Numbers only, in ng/mL.

Entry C=CC(=O)N1CC[C@H](n2nc(C#Cc3cc(OC)cc(OC)c3)c3c(N)ncnc32)C1 : reported Cmax = ?
213

====

assay: clinical; conditions: human, plasma, oral, 16 mg, AUC0–inf, 16 mg t.i.w., cycle 1 Day 1, mean
REPORTED ENDPOINT: AUC(0-inf) (ng·h/mL)
Answers are plain numbers, in ng·h/mL.

What value of AUC(0-inf) has been reported for the following molecule? C=CC(=O)N1CC[C@H](n2nc(C#Cc3cc(OC)cc(OC)c3)c3c(N)ncnc32)C1
744

====

assay: clinical; conditions: human, plasma, oral, 16 mg, T1/2, 16 mg q.d., cycle 1 Day 1, mean
REPORTED ENDPOINT: half-life (h)
One number for each entry, in h.

Query: half-life; subject: C=CC(=O)N1CC[C@H](n2nc(C#Cc3cc(OC)cc(OC)c3)c3c(N)ncnc32)C1
2.73

Values compiled from paper PMC9743148.
